Molecular target: Cannabinoid receptor 2 (Homo sapiens, UniProt P34972)
Sequence (P34972 whole entry): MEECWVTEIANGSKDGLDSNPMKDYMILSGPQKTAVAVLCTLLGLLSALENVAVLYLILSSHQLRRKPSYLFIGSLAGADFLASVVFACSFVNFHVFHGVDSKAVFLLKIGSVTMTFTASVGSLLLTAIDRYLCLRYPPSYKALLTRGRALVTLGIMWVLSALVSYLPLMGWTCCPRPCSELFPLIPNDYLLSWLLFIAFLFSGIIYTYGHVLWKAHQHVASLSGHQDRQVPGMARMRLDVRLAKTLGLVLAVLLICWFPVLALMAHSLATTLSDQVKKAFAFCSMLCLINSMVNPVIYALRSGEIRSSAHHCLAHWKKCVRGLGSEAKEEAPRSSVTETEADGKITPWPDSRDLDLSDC
So basically, the class depends on measured Ki, and the ranges are lo: < 10 nM; mid: ≥ 10 nM and < 80 nM; hi: ≥ 80 nM

1) Cc1ccc(NC(=O)[C@@H]2C(C)(C)[C@@H]3CC[C@@]2(C)C3)cc1S(=O)(=O)N1CCOCC1    lo
2) Cc1ccc(-c2noc(C(C)(C)C)n2)cc1S(=O)(=O)N1CCOCC1    mid
3) Cc1ccc(-c2n[nH]c(CC3CCCCC3)n2)cc1S(=O)(=O)N1CCOCC1    mid
4) Cc1ccc(-c2nc(CC3CCCCC3)cs2)cc1S(=O)(=O)N1CCOCC1    mid
5) Cc1ccc(NC(=O)[C@H]2C(C)(C)[C@@H]3CC[C@@]2(C)C3)cc1S(=O)(=O)N1CCOCC1    lo

Task: Band for the recorded Ki of Cc1ccc(NC(=O)[C@@H]2C[C@@]3(C)CC[C@]2(C)O3)cc1S(=O)(=O)N1CCOCC1 ?
Result: hi

Task: Please do the same for Cc1ccc(NC(=O)C2CCCCC2)cc1S(=O)(=O)N1CCOCC1 as well.
Result: hi

Task: Can you handle Cc1ccc(NC(=O)C2CCCCC2(C)C)cc1S(=O)(=O)N1CCOCC1 (centres undefined) next?
Result: mid

----------
Endpoint: Ki. System: Cannabinoid receptor 2 (Homo sapiens). Items follow.
# value in nM; strip the unit string

Sample answers from the record:
1) Cc1ccc(-c2nc(C(C)(C)C)c[nH]2)cc1S(=O)(=O)N1CCOCC1    23
2) Cc1ccc(-c2nc(CC(C)(C)C)c[nH]2)cc1S(=O)(=O)N1CCOCC1    36
3) Cc1ccc(-c2cc(C(C)(C)C)[nH]n2)cc1S(=O)(=O)N1CCOCC1    160
4) Cc1ccc(NC(=O)C2CCCCC2C)cc1S(=O)(=O)N1CCOCC1 (stereo unspecified)    14
5) Cc1ccc(NC(=O)[C@H]2C[C@@]3(C)CC[C@]2(C)O3)cc1S(=O)(=O)N1CCOCC1    2000

Task: Could you tell me which Ki is on file for Cc1ccc(-c2cc(CC(C)(C)C)[nH]n2)cc1S(=O)(=O)N1CCOCC1 ?
Result: 75

Task: Then this molecule: Cc1ccc(-c2nc(CC(C)(C)C)cs2)cc1S(=O)(=O)N1CCOCC1
Result: 5.2

Task: Then Cc1ccc(NC(=O)C(C(C)(C)C)C(C)(C)C)cc1S(=O)(=O)N1CCOCC1 ?
Result: 11

Task: Next entry: Cc1ccc(C(=O)N[C@H]2C(C)(C)[C@@H]3CC[C@@]2(C)C3)cc1S(=O)(=O)N1CCOCC1
Result: 48

Task: How about this molecule: Cc1ccc(NC(=O)c2ccc(Cl)cc2)cc1S(=O)(=O)N1CCOCC1
Result: 2900

Task: And the next one, Cc1ccc(-c2n[nH]c(CC(C)(C)C)n2)cc1S(=O)(=O)N1CCOCC1 ?
Result: 85

Task: Follow-up entry: Cc1ccc(-c2noc(CC3CCCCC3)n2)cc1S(=O)(=O)N1CCOCC1
Result: 130

Task: Further, for Cc1ccc(NC(=O)C2(C)CCCCC2)cc1S(=O)(=O)N1CCOCC1 ?
Result: 35

Task: Would you kindly repeat that for Cc1ccc(-c2nc(C(C)(C)C)cs2)cc1S(=O)(=O)N1CCOCC1 ?
Result: 5.7

Task: And Cc1ccc(-c2noc(CC(C)(C)C)n2)cc1S(=O)(=O)N1CCOCC1 ?
Result: 59

Task: What about Cc1ccc(-c2c[nH]c(C(C)(C)C)n2)cc1S(=O)(=O)N1CCOCC1 ?
Result: 81

Task: Same for Cc1ccc(-c2nnn(CC(C)(C)C)n2)cc1S(=O)(=O)N1CCOCC1
Result: 17

Task: Same lookup for Cc1ccc(NC(=O)C(C)(C)C)cc1S(=O)(=O)N1CCOCC1 , please.
Result: 540

Task: Likewise for Cc1ccc(NC(=O)C2C(C)(C)C2(C)C)cc1S(=O)(=O)N1CCOCC1 ?
Result: 23

Task: Same read-out for Cc1ccc(C(=O)N[C@@H]2C(C)(C)[C@@H]3CC[C@@]2(C)C3)cc1S(=O)(=O)N1CCOCC1 ?
Result: 3.9

The origin of these recorded values is ChEMBL document CHEMBL1136835.
